These entries and their values trace back to ChEMBL document CHEMBL1144685.

For each record, write down the corresponding bioavailability.
Assay: Oral bioavailability in Sprague-Dawley rat at 2 mg/kg
Format: ADME, organism-based
Details: in vivo
Give me the value, and tack the unit on after it.

Lab note: COc1cc2nccc(Oc3ccc4c(C(=O)Nc5ccc(Cl)cc5)cccc4c3F)c2cc1OC gave bioavailability of 50%

COc1cc2nccc(Oc3ccc4c(C(=O)Nc5ccccn5)cccc4c3)c2cc1OC has a reported bioavailability of 45%

###

Experiment: Volume of distribution at steady state in Sprague-Dawley rat at 2 mg/kg, iv
Assay type: ADME, organism-based
Parameters: dose 2 mg/kg, route intravenous
Conditions: in vivo, read-out: Vdss
READOUT LABEL: Vd (L/kg)
Hi! Could you send only the number? It should be in L/kg, unit omitted.

Entry COc1cc2nccc(Oc3ccc4c(C(=O)Nc5ccc(Cl)cc5)cccc4c3)c2cc1OC — recorded Vd = 7.3
